- target of assay: Anti-CD28 Fab (SEQ ID NOs: 202, 203)
- Sequence (VH, as listed by the source, chain 1 of 2): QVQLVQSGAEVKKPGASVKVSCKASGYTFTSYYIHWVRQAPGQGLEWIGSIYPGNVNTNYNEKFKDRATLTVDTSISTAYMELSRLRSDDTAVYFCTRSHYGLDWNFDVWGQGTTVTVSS
- Sequence (VL, as listed by the source, chain 2 of 2): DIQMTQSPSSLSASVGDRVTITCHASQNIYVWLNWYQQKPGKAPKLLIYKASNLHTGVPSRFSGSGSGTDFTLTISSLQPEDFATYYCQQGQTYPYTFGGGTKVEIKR
- protocol details: phage binding ELISA on captured Fab;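 further: clonal phage supernatants added briefly to wells pre-incubated with CD28 antigen or with blocking buffer only, then washed, bound phage read by ELISA using HRP-coupled anti-M13 antibody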
For each of the binders below, state its Anti-CD28 Fab signal.
Answers are plain numbers.

List Anti-CD28 Fab signal for every entry below, keeping the order given.
1. YCEGHAPEYMAKCL [Phage-46]
2. WCWDYKLWVPMTCP [Phage-11]
3. YCDGHAPEYMMKCL [Phage-61]
4. WECLKYTEANACTY [Phage-2]

OUTPUT:
1: 2.47; 2: 2.51; 3: 2.39; 4: 1.55
